# Experimental target: Recombinant human JARID1B/KDM5B (Homo sapiens)
# Construct: purchased Active Motif 31432; host or cells: Sf9 insect cells
# Sequence (Q9UGL1 whole entry): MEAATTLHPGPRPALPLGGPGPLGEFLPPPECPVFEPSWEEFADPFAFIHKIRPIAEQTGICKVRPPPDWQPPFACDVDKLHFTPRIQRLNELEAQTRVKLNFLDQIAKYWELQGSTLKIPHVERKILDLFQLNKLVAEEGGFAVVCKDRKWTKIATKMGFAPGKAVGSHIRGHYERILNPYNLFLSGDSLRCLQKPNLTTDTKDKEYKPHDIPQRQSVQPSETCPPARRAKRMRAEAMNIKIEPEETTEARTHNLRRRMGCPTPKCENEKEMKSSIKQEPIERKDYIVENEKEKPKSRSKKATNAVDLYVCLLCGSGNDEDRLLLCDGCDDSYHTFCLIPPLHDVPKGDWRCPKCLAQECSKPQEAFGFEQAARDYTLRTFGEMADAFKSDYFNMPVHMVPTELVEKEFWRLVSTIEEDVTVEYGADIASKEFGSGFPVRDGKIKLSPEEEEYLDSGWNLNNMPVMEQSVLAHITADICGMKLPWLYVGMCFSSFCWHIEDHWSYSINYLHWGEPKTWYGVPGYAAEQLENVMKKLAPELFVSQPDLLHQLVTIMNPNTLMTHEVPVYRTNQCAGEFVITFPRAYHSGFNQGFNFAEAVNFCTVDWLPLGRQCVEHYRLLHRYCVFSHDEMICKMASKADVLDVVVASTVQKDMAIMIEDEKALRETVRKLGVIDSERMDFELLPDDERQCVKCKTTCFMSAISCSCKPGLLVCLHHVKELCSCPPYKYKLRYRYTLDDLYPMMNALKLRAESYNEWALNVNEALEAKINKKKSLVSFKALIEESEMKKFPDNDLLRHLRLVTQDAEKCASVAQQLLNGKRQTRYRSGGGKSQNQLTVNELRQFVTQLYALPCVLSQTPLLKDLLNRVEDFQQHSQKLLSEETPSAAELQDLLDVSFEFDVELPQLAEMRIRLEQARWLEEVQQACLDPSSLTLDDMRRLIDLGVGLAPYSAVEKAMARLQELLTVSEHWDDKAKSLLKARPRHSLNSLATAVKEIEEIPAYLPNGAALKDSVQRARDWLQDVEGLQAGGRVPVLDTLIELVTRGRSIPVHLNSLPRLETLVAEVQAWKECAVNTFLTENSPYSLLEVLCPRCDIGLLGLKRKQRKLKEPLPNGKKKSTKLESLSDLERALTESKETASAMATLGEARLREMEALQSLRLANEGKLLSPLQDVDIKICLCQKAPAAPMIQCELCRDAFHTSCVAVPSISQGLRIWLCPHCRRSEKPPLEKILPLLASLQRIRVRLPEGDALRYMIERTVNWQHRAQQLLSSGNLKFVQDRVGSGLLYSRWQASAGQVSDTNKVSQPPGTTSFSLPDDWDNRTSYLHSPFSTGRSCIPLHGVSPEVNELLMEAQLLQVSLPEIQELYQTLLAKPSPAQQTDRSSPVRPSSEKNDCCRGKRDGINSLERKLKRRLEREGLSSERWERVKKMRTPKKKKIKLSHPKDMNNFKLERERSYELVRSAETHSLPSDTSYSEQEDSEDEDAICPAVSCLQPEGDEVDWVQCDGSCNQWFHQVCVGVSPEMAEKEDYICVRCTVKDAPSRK
# Test summary: LANCE Ultra TR-FRET demethylase assay with FLAG-tagged JARID1B
# Assay type: biochemical
# Experimental setup: 100 nM compound; 500 nM biotinylated H3K4me3 peptide substrate
The following molecules are shown together with reported inhibition at 0.1 µM values.

Cc1ccccc1OCc1nc2c(CNCC3CCNCC3)nccc2c(=O)[nH]1 [Example 118] | 20 to 50%
COc1cc(OCc2nc3cnccc3c(=O)[nH]2)cc(OC)c1OC [Example 39] | < 20%
CC(C)N1CCC(CNCc2nccc3c(=O)[nH]c(COc4ccc(F)c(Cl)c4)nc23)CC1 [Example 168] | > 50%

Provide the documented inhibition at 0.1 µM with Recombinant human JARID1B/KDM5B (Homo sapiens) as the system for O=c1[nH]c(COc2ccccc2)nc2c(CNCC3CCNCC3)nccc12 [Example 123] 20 to 50%

API: value(readout=inhibition at 0.1 µM, system=Recombinant human JARID1B/KDM5B (Homo sapiens)) for record O=c1[nH]c(COc2ccc(Cc3ccccc3)cc2)nc2c(CNCC3CCN(Cc4ccccc4)CC3)nccc12 [Example 111] > 50%
